system: C57BL/KsJ db/db mouse; test: Antidiabetic and serum-lipid-lowering activity in the db/db mouse (Experiments I and II); conditions: Experiment I; after 25 days' treatment
Each entry below lists one item and its recorded Variation % (HDL-cholesterol) vs control value.

Check out these entries, answers already filled in.
CN(CCOc1ccc(CC2SC(=O)NC2=O)cc1)c1ccccn1 (stereo not shown) [Rosiglitazone, rosiglitazone, reference compound]; −20%
COC(=O)C(C)(C)Sc1cccc(OCCc2ccc(Cl)cc2)c1; +20%
CC(C)OC(=O)C(C)(C)Oc1ccc(C(=O)c2ccc(Cl)cc2)cc1 [Fenofibrate, fenofibrate, reference compound]; +18%

Next item in the queue.
Value sought: Variation % (HDL-cholesterol) vs control, system C57BL/KsJ db/db mouse, item CC(C)(Oc1ccc(CCNC(=O)c2ccc(Cl)cc2)cc1)C(=O)O [Bezafibrate, bezafibrate, reference compound] . Result: +14%

---

Each record here notes measured Variation % (glucose) vs control.
system: C57BL/KsJ db/db mouse; experiment: Antidiabetic and serum-lipid-lowering activity in the db/db mouse (Experiments I and II); for Variation % (glucose) vs control: test concentration or dose not given here; conditions: Experiment I; after 12 days' treatment; feeding state, approx. 15 hours after last treatment
# number only, unit % dropped from output

Here's what some known entries look like.
CC(C)OC(=O)C(C)(C)Oc1ccc(C(=O)c2ccc(Cl)cc2)cc1 [Fenofibrate, fenofibrate, reference compound]; −4
COC(=O)C(C)(C)Sc1cccc(OCCc2ccc(Cl)cc2)c1 [Example 1]; −38

Recorded Variation % (glucose) vs control (compound CN(CCOc1ccc(CC2SC(=O)NC2=O)cc1)c1ccccn1 (stereo not shown) [Rosiglitazone, rosiglitazone, reference compound] ): −25

---

attributeMeasured: melting point

Examples from the recorded data:
COC(=O)C(C)(C)Sc1cccc(OCc2ccc(-c3ccc([N+](=O)[O-])cc3)o2)c1; 81 to 82 °C
COC(=O)C(C)(C)Sc1cccc(OCCn2c3ccccc3c3ccccc32)c1; 101 to 103 °C
COC(=O)C(C)(C)Sc1ccc(OCCn2c3ccccc3c3ccccc32)cc1; 72 to 74 °C

melting point for COC(=O)C(C)(C)Sc1ccc(OCCc2ccc3ccccc3c2)cc1 is 56 to 57 °C

Summary for this molecule, COC(=O)C(C)(C)Sc1ccc(OCCc2ccc(Cl)cc2Cl)cc1 : melting point is 73 to 74 °C

---

attributeMeasured: melting point

CC(C)(Sc1ccc(OCCc2ccc(Cl)cc2)cc1)C(=O)O; 87 to 88 °C
CC(C)(Sc1cccc(OCCc2ccc(Cl)cc2)c1)C(=O)O; 105 to 106 °C
CC(C)(Sc1cccc(OCc2ccc(-c3ccc([N+](=O)[O-])cc3)o2)c1)C(=O)O; 137 to 138 °C

melting point measured on CC(C)(Sc1ccc(OCCc2ccc3ccccc3c2)cc1)C(=O)O = 103 to 104 °C
